Data origin, for the record: patent US7803801B2

Molecular target: GST-Syk Full Protein (human) (Homo sapiens, UniProt P43405)
Assay: Syk kinase inhibition test (HTRF method)
Format: biochemical
Settings: HTRF, 100 μM ATP, 30 min room temperature, average; read-out: sykHTRF ave IC50
MEASURED_PROPERTY: IC50

The examples below pair each entry with its known result.
Cc1ccnc(Nc2cccc(-c3cnc([C@H]4CC[C@H](C#N)CC4)s3)n2)c1 [Compound A-316] | < 100 nM
Cc1ccnc(Nc2cccc(-c3cnc([C@H](C)NC(=O)C4CC4)s3)n2)c1 [Compound A-141] | 100 to 1000 nM
Cc1ccnc(Nc2cccc(-c3cnc([C@H]4CC[C@@H](C#N)CC4)s3)n2)c1 [Compound A-317] | < 100 nM

CC(=O)O[C@@H]1C[C@@H](c2ncc(-c3cccc(Nc4cc(C)ccn4)n3)s2)N(C(C)=O)C1 [Compound A-93] yielded IC50 of 100 to 1000 nM

Cc1ccnc(Nc2cccc(-c3cnc(C4CCN(C(=O)CO)CC4)s3)n2)c1 [Compound A-187] yielded IC50 of < 100 nM

Cc1ccnc(Nc2cccc(-c3cnc(CN4C(=O)CCCC4=O)s3)n2)c1 [Compound A-350] yielded IC50 of 100 to 1000 nM

----------
Test system: cultured human mast cells
Assay: Degranulation inhibition test using cultured human mast cells (IgE cross-linking, β-Hexosaminidase release)
Format: cell-based
Conditions: Mast cell; Tables 1-x, compounds A; cultured human mast cells; read-out: human degranulation ave. IC50
pIC50: −log10 of the molar value. Structures can show the parent of a compound that is named as a salt.
MEASURED_PROPERTY: pIC50

The examples below pair each entry with its known result.
Cc1ccnc(Nc2cccc(-c3cnc(N(C)C(C)(C)c4ccc(C(=O)O)cc4)s3)n2)c1 [Compound A-616, dihydrochloride] | 6.00 to 7.00
Cc1ccnc(Nc2cccc(-c3cnc(COCC(=O)N4CCN(C)C(=O)C4)s3)n2)c1 | < 6.00
Cc1ccnc(Nc2cccc(-c3cnc(N(C)[C@H]4CN[C@H](C(=O)O)C4)s3)n2)c1 | < 6.00

Cc1ccnc(Nc2cccc(-c3cnc(N(C)C4CCC(C(N)=O)CC4)s3)n2)c1 (stereo not shown) yielded pIC50 of 6.00 to 7.00

CC(O)c1ccnc(Nc2cccc(-c3cnc(N4CCC(C(N)=O)CC4)s3)n2)c1 (stereo not shown) yielded pIC50 of < 6.00

Cc1ccnc(Nc2cccc(-c3cnc(N4CCN(C(=O)C5CCC(O)CC5)CC4)s3)n2)c1 (stereo not shown) yielded pIC50 of 6.00 to 7.00

CC(=O)c1ccnc(Nc2cccc(-c3cnc(N4CCC[C@H]4C(N)=O)s3)n2)c1 yielded pIC50 of 6.00 to 7.00

Cc1ccnc(Nc2cccc(-c3cnc(N4CCC(C)(C(=O)NCCO)CC4)s3)n2)c1 yielded pIC50 of 6.00 to 7.00

Cc1ccnc(Nc2cccc(-c3cnc(N4CCN(C(=O)CCC(=O)O)CC4)s3)n2)c1 yielded pIC50 of < 6.00

Cc1ccnc(Nc2cccc(-c3cnc(N4CCCC(COCC(=O)O)C4)s3)n2)c1 (stereo not shown) [Compound A-497, dihydrochloride] yielded pIC50 of < 6.00

Cc1ccnc(Nc2cccc(-c3cnc(N(C)[C@H]4CC[C@H](CC(=O)O)CC4)s3)n2)c1 yielded pIC50 of 6.00 to 7.00

----------
Target: GST-Syk Full Protein (human) (Homo sapiens)
Assay: Syk kinase inhibition test (HTRF method)
Format: biochemical
Settings: Tables 1-x, compounds A; read-out: sykHTRF ave IC50
pIC50: −log10 of the molar value.
MEASURED_PROPERTY: pIC50

Cc1ccnc(Nc2cccc(-c3cnc(N4CCC[C@H]4C(=O)N[C@@H](C)C(=O)O)s3)n2)c1 [Compound A-566] yielded pIC50 of 6.00 to 7.00

Cc1ccnc(Nc2cccc(-c3cnc(N4CCC[C@H]4C(=O)NS(C)(=O)=O)s3)n2)c1 [Compound A-646] yielded pIC50 of 6.00 to 7.00

----------
The following molecules are shown together with reported IC50 values.
Target: GST-Syk Full Protein (human) (Homo sapiens)
Assay: Syk kinase inhibition test (HTRF method)
Format: biochemical
Conditions: HTRF, 100 μM ATP, 30 min room temperature, average; read-out: sykHTRF ave IC50

Cc1ccnc(Nc2cccc(-c3cnc([C@H]4CC[C@H](C(=O)N5C[C@@H](O)[C@@H](O)C5)CC4)s3)n2)c1 | < 100 nM
Cc1ccnc(Nc2cccc(-c3cnc(CN(C)C(=O)N(C)C)s3)n2)c1 | 100 to 1000 nM
Cc1ccnc(Nc2cccc(-c3cnc([C@H]4CC[C@H](C(N)=O)CC4)s3)n2)c1 | < 100 nM
Cc1ccnc(Nc2cccc(-c3cnc([C@@H](N)Cc4ccc(N)cc4)s3)n2)c1 | 100 to 1000 nM
Cc1cccnc1Nc1cccc(-c2cnc([C@H](C)O)s2)n1 | > 1000 nM

Form: item CON(C)C(=O)[C@H]1CC[C@H](c2ncc(-c3cccc(Nc4cc(C)ccn4)n3)s2)CC1 ; test system GST-Syk Full Protein (human) (Homo sapiens); IC50: 100 to 1000 nM

Form: item COC(=O)NCCc1ncc(-c2cccc(Nc3cc(C)ccn3)n2)s1 ; test system GST-Syk Full Protein (human) (Homo sapiens); IC50: 100 to 1000 nM

Form: item Cc1ccnc(Nc2cccc(-c3cnc([C@@H]4CCCC(=O)N4C)s3)n2)c1 ; test system GST-Syk Full Protein (human) (Homo sapiens); IC50: 100 to 1000 nM

Form: item CC(=O)N[C@@H](C)c1ncc(-c2cccc(Nc3cc(C(C)=O)ccn3)n2)s1 ; test system GST-Syk Full Protein (human) (Homo sapiens); IC50: 100 to 1000 nM

Form: item CC(=O)NCCCC[C@H](NC(C)=O)c1ncc(-c2cccc(Nc3cc(C)ccn3)n2)s1 ; test system GST-Syk Full Protein (human) (Homo sapiens); IC50: 100 to 1000 nM

Form: item Cc1ccnc(Nc2cccc(-c3cnc(CNC[C@H]4CC[C@H](CO)CC4)s3)n2)c1 ; test system GST-Syk Full Protein (human) (Homo sapiens); IC50: 100 to 1000 nM

Form: item Cc1ccnc(Nc2cccc(-c3cnc([C@H]4CC[C@H](C(=O)N(C)C)CC4)s3)n2)c1 ; test system GST-Syk Full Protein (human) (Homo sapiens); IC50: 100 to 1000 nM

Form: item Cc1ccnc(Nc2cccc(-c3cnc(CCc4ccc(C(=O)N5CCC(O)CC5)cc4)s3)n2)c1 ; test system GST-Syk Full Protein (human) (Homo sapiens); IC50: 100 to 1000 nM

----------
Target: GST-Syk Full Protein (human) (Homo sapiens)
Experiment: Syk kinase inhibition test (HTRF method)
Type: biochemical
Conditions: Tables 1-x, compounds A; read-out: sykHTRF ave IC50
Where a name gives a salt, the structure may show the parent alone.
MEASURED_PROPERTY: IC50

The examples below pair each entry with its known result.
Cc1ccnc(Nc2cccc(-c3cnc(N4CCC(CC(=O)O)C4)s3)n2)c1 (stereo not shown) [Compound A-588] | < 100 nM
Cc1ccnc(Nc2cccc(-c3cnc(N4CCCC(CO)C4)s3)n2)c1 (stereo not shown) [Compound A-498] | < 100 nM
CN(CCO)c1ncc(-c2cccc(Nc3cc(CC(=O)O)ccn3)n2)s1 [Compound A-550] | 100 to 1000 nM
CC1(c2ccnc(Nc3cccc(-c4cnc(N5CC[C@@H](O)C5)s4)n3)c2)OCCO1 [Compound A-548] | < 100 nM
CC(=O)N1CCN(c2ncc(-c3cccc(Nc4cc(C)ccn4)n3)s2)CC1 [Compound A-419] | < 100 nM
COC(=O)N(CCC(=O)O)Cc1ncc(-c2cccc(Nc3cc(C)ccn3)n2)s1 [Compound A-584] | 100 to 1000 nM
Cc1ccnc(Nc2cccc(-c3cnc(COCC(=O)O)s3)n2)c1 [Compound A-615, hydrochloride] | < 100 nM
CC(=CC(=O)O)CCCN(C)c1ncc(-c2cccc(Nc3cc(C(F)(F)F)ccn3)n2)s1 [Compound A-655, dihydrochloride] | < 100 nM
CC1(c2ccnc(Nc3cccc(-c4cnc(N5CCC(CC(=O)O)CC5)s4)n3)c2)OCCO1 [Compound A-572, dihydrochloride] | < 100 nM
Cc1ccnc(Nc2cccc(-c3cnc(N(Cc4ccccc4)[C@H]4CC[C@H](CC(=O)O)CC4)s3)n2)c1 [Compound A-624] | < 100 nM

CCC(C(=O)O)C1CCN(c2ncc(-c3cccc(Nc4cc(C)ccn4)n3)s2)CC1 (stereo not shown) [Compound A-698] yielded IC50 of < 100 nM

Cc1ccnc(Nc2cccc(-c3cnc(N4CCc5c(cccc5C(=O)O)C4)s3)n2)c1 [Compound A-582] yielded IC50 of < 100 nM

Cc1ccnc(Nc2cccc(-c3cnc(N(C)Cc4ccc(O)cc4)s3)n2)c1 [Compound A-471] yielded IC50 of < 100 nM

COCCN(C)C(=O)C1CCN(c2ncc(-c3cccc(Nc4cc(C)ccn4)n3)s2)CC1 [Compound A-451] yielded IC50 of 100 to 1000 nM

Cc1ccnc(Nc2cccc(-c3cnc(CN4CCCCC4=O)s3)n2)c1 [Compound A-401] yielded IC50 of > 1000 nM

CN(c1ncc(-c2cccc(Nc3ccccn3)n2)s1)C(C)(C)c1ccc(C(=O)O)cc1 [Compound A-691] yielded IC50 of 100 to 1000 nM

O=C(O)CC1CCN(c2ncc(-c3cccc(Nc4cnccn4)n3)s2)CC1 [Compound A-680] yielded IC50 of < 100 nM

Cc1ccnc(Nc2cccc(-c3sc(N4CCC(C(N)=O)CC4)nc3C)n2)c1 [Compound A-429] yielded IC50 of < 100 nM

CC(=CC(=O)O)CCCN(C)c1ncc(-c2cccc(Nc3cc(C)ccn3)n2)s1 [Compound A-656, dihydrochloride] yielded IC50 of < 100 nM

Cc1ccnc(Nc2cccc(-c3cnc(N(C)[C@H]4CC[C@H](C(=O)O)CC4)s3)n2)c1 [Compound A-592] yielded IC50 of < 100 nM

Cc1ccnc(Nc2cccc(-c3cnc(N(C)C4CCC(C(N)=O)CC4)s3)n2)c1 (stereo not shown) [Compound A-446] yielded IC50 of < 100 nM

COC(CN(C)c1ncc(-c2cccc(Nc3cc(C)ccn3)n2)s1)OC [Compound A-457] yielded IC50 of < 100 nM

Cc1ccnc(Nc2cccc(-c3cnc(N(CC(=O)NCC(F)(F)F)C4CCCCC4)s3)n2)c1 [Compound A-665] yielded IC50 of 100 to 1000 nM

Cc1ccnc(Nc2cccc(-c3cnc(N4CCC(C(F)C(=O)O)CC4)s3)n2)c1 (stereo not shown) [Compound A-684] yielded IC50 of < 100 nM

Cc1ccnc(Nc2cccc(-c3cnc(CN4CCN(c5ccc(O)cc5)CC4)s3)n2)c1 [Compound A-382] yielded IC50 of 100 to 1000 nM

Cc1ccnc(Nc2cccc(-c3cnc(N4CCC(NC(=O)C5CCC(O)CC5)CC4)s3)n2)c1 (stereo not shown) [Compound A-662] yielded IC50 of 100 to 1000 nM

Cc1ccnc(Nc2cccc(-c3cnc(N4CCC[C@H]4C(=O)N4CCC(O)CC4)s3)n2)c1 [Compound A-659] yielded IC50 of 100 to 1000 nM

CNC(=O)CN(C)C(=O)C1CCN(c2ncc(-c3cccc(Nc4cc(C)ccn4)n3)s2)CC1 [Compound A-469] yielded IC50 of < 100 nM

NC(=O)[C@@H]1CCCN1c1ncc(-c2cccc(Nc3cc(CC(=O)O)ccn3)n2)s1 [Compound A-559] yielded IC50 of 100 to 1000 nM

CC(=O)N1CCC(N(CCNC(=O)N(C)C)c2ncc(-c3cccc(Nc4cc(C)ccn4)n3)s2)CC1 [Compound A-523] yielded IC50 of 100 to 1000 nM

Cc1ccnc(Nc2cccc(-c3cnc(N4CCC(CC(=O)O)CC4)s3)n2)c1 [Compound A-653] yielded IC50 of < 100 nM
